- assayMethodText: Cytotoxicity against human MDA-MB-435 cells assessed as reduction in cell viability incubated for 72 hrs by CCK-8 assay
- Type: toxicity, cell-based
resultType: IC50 at 72 h (nM)
Give bare numbers, in nM.

*Q* Would you mind telling me what IC50 at 72 h value was observed for COc1ccc2[nH]cc(C(=O)OCc3nc4ccccc4n3C)c2c1 ?
*A* 450

*Q* Same again, this time with Cn1c(COC(=O)c2c[nH]c3ccc(Br)cc23)nc2ccccc21
*A* 270

*Q* Entry to check: Cn1c(COC(=O)c2c[nH]c3ccccc23)nc2ccccc21
*A* 540

Okay, next one:
*Q* Could you tell me which IC50 at 72 h is on file for O=C(OCc1nc2ccccc2[nH]1)c1c[nH]c2ccccc12 ?
*A* 370

###

Could you please report measured pIC50 for the items listed next?
- Test system: HCT-116
- assayMethodText: cells
- experimentalParameters: Homo sapiens, HCT-116, 72 h
- Description: Cytotoxicity against human HCT-116 cells assessed as reduction in cell viability incubated for 72 hrs by MTT assay
Give bare numbers, as −log10 of the molar value.

*Q* Item under review: O=C(CCSc1nc2ccccc2o1)Nc1nnc(-c2ccccc2)s1 . Reported pIC50?
*A* 5.16

*Q* Record: CCNC(=S)NS(=O)(=O)c1ccc(NC(=O)CCSc2nc3ccccc3o2)cc1
*A* 5.10

Each compound below has a recorded value; state its pIC50.
1. Cc1ccc2oc(SCCC(=O)Nc3ccc(S(=O)(=O)NC(=O)NC4CCCCC4)cc3)nc2c1
2. Cc1ccc2oc(SCCC(=O)Nc3ccc(S(=O)(=O)NC(=O)Nc4ccccc4)cc3)nc2c1
3. O=C(CCSc1nc2ccccc2o1)Nc1ccc(S(=O)(=O)NC(=O)Nc2ccccc2)cc1

*A*
5.16
5.04
5.02

###

- Test system: A549
- assayMethodText: Cytotoxicity against human A549 cells
- Type: functional, cell-based
What pIC50 was measured for each of the following?
Numbers only, as −log10 of the molar value.

*Q* Entry COc1cc(/C=C2/C=C(c3nc4ccccc4[nH]3)NC2=O)cc(OC)c1OC has what pIC50?
*A* 5.08

---
*Q* Param item = COc1cc(/C=C2/C=C(c3nc4ccccc4[nH]3)NC2=O)ccc1O ; retrieve measured pIC50.
*A* 5.02

###

For each of the molecules below, state its IC50.
- targetOrSystem: Vascular endothelial growth factor receptor 2 (Homo sapiens, UniProt P35968)
- Sequence (P35968 whole entry): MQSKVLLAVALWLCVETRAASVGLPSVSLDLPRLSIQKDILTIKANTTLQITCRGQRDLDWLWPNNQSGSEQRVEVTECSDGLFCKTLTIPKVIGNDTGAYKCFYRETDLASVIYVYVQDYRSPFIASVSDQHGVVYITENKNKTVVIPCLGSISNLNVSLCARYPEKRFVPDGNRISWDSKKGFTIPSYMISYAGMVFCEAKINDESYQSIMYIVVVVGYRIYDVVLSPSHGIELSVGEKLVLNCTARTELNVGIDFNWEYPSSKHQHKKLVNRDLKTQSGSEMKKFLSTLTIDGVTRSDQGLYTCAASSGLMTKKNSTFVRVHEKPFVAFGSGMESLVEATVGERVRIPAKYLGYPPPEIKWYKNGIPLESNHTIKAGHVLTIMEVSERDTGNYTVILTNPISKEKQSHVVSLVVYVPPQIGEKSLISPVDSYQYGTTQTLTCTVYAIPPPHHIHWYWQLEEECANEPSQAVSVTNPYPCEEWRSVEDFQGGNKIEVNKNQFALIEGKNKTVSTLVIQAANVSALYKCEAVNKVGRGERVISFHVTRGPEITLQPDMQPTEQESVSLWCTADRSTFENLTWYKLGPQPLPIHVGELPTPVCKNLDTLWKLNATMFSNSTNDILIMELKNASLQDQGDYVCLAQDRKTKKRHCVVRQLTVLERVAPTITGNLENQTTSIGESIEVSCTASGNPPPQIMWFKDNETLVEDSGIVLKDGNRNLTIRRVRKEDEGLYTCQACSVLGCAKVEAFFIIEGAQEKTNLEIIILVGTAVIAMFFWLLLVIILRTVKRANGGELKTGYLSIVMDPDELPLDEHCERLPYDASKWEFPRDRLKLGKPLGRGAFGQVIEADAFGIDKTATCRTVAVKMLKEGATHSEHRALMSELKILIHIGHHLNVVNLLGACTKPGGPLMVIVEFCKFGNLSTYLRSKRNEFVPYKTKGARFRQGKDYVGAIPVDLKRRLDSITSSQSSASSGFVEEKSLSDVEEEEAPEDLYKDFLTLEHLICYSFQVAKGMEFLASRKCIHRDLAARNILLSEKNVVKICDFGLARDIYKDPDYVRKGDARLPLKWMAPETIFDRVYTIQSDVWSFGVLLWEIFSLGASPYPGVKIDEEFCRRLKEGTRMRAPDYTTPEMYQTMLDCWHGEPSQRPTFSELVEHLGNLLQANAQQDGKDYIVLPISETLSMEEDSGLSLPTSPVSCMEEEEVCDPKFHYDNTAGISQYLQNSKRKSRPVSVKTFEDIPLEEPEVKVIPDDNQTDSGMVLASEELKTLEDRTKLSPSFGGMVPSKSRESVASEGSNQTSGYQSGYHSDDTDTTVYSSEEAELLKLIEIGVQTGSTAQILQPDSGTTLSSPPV
- assayMethodText: Inhibition of VEGFR-2 in human MCF7 cells by ELISA method
- Format: cell-based
Give bare numbers, in nM.

Below, each entry is followed by its recorded IC50 result.
*Q* Which IC50 is listed for O=[N+]([O-])c1ccc(NC(=S)Nc2cccc(-c3nc4ccccc4[nH]3)c2)cc1 ?
*A* 8.9

*Q* Okay, and O=[N+]([O-])c1ccc(CNc2cccc(-c3nc4ccccc4[nH]3)c2)cc1 ?
*A* 6.7

*Q* Record: O=C(Nc1ccc([N+](=O)[O-])cc1)Nc1cccc(-c2nc3ccccc3[nH]2)c1
*A* 6.8

Next:
*Q* Reported IC50 for Clc1cccc(Cl)c1CNc1cccc(-c2nc3ccccc3[nH]2)c1 : what is it?
*A* 6.9

###

- Tested on: HT-29
- assayMethodText: Cytotoxicity against human HT-29 cells assessed as reduction in cell viability incubated for 72 hrs by CCK-8 assay
- Format: functional, cell-based
- experimentalParameters: HT-29, 72 h
resultType: pIC50
One number for each entry, as −log10 of the molar value.

*Q* Any idea what pIC50 came out for Cn1c(COC(=O)c2c[nH]c3ccc(Br)cc23)nc2ccccc21 on HT-29?
*A* 6.48

*Q* Next compound up: O=C(OCc1nc2ccccc2[nH]1)c1c[nH]c2ccccc12
*A* 6.72

*Q* Same thing, different compound: COc1ccc2[nH]cc(C(=O)OCc3nc4ccccc4n3C)c2c1
*A* 6.59

Okay, next one:
*Q* So what pIC50 did Cn1c(COC(=O)c2c[nH]c3ccccc23)nc2ccccc21 get with HT-29?
*A* 6.44

###

For each record, write down the corresponding inhibition.
- targetOrSystem: Vascular endothelial growth factor receptor 2 (Homo sapiens, UniProt P35968)
- assayMethodText: Inhibition of VEGFR-2 (unknown origin) at 1 uM by ELISA method relative to control
One number for each entry, in %.

Examples with answers:
*Q* # get_value(readout='inhibition', item= Cn1c(COC(=O)c2c[nH]c3ccc(Br)cc23)nc2ccccc21 )
*A* 28.8

*Q* // same read-out, input: Cn1c(COC(=O)c2c[nH]c3ccccc23)nc2ccccc21
*A* 33.9

*Q* Would you mind doing O=C(OCc1nc2ccccc2[nH]1)c1c[nH]c2ccccc12 as well?
*A* 34

Continuing:
*Q* May I ask what inhibition has been recorded for COc1ccc2[nH]cc(C(=O)OCc3nc4ccccc4n3C)c2c1 ?
*A* 36.7

###

For each record, write down the corresponding pIC50.
- Test system: HepG2
- assayMethodText: Cytotoxicity against human HepG2 cells assessed as reduction in cell growth by MTT assay
- Type: functional, cell-based
Give bare numbers, as −log10 of the molar value.

*Q* Recorded pIC50 of COc1cc(/C=N/NC(=O)c2nnn(Cc3nc4ccccc4[nH]3)c2C)ccc1O , please.
*A* 4.96

Continue with the molecule presented below.
*Q* GET /values?readout=pIC50&item= Cc1c(C(=O)NNC(=S)Nc2ccc(Cl)cc2)nnn1Cc1nc2ccccc2[nH]1
*A* 5.11

###

- Tested on: HeLa
- assayMethodText: Antiproliferative activity against human HeLa cells assessed as reduction in cell growth incubated for 48 hrs by MTT assay
- Type: toxicity, cell-based
resultType: pIC50
Answers are plain numbers, as −log10 of the molar value.

*Q* Any idea what pIC50 was measured for O=C(Nc1ccc(OC(F)(F)F)cc1)Nc1ccc2oc(-c3ccccc3Cl)nc2c1 ?
*A* 6.55

###

- assayMethodText: Cytotoxicity against human A549 cells assessed as reduction in cell viability incubated for 72 hrs by CCK-8 assay
- Type: toxicity, cell-based
resultType: IC50 at 72 h
Returns: string containing the number followed by the unit.

Some compounds with known IC50 at 72 h results, for comparison:
*Q* Could you tell me which IC50 at 72 h is on file for O=C(OCc1nc2ccccc2[nH]1)c1c[nH]c2ccccc12 ?
*A* 540 nM

*Q* Another compound to look at: Cn1c(COC(=O)c2c[nH]c3ccc(Br)cc23)nc2ccccc21
*A* 450 nM

*Q* Now the compound Cn1c(COC(=O)c2c[nH]c3ccccc23)nc2ccccc21
*A* 210 nM

# evaluate next
*Q* Need IC50 at 72 h, item COc1ccc2[nH]cc(C(=O)OCc3nc4ccccc4n3C)c2c1
*A* 300 nM

###

- Tested on: HCT-116
- assayMethodText: Cytotoxicity against human HCT-116 cells assessed as reduction in cell growth by MTT assay
- Type: functional, cell-based
resultType: pIC50
Give bare numbers, as −log10 of the molar value.

*Q* Item: COc1cc(/C=N/NC(=O)c2nnn(Cc3nc4ccccc4[nH]3)c2C)ccc1O Test system: HCT-116 Read-out: pIC50 Value: ?
*A* 5.48

Then there is this compound:
*Q* Hi! What's the reported pIC50 for Cc1c(C(=O)NNC(=S)Nc2ccc(Cl)cc2)nnn1Cc1nc2ccccc2[nH]1 on HCT-116?
*A* 5.08

###

- Tested on: MCF7
- assayMethodText: Antiproliferative activity against human MCF7 cells assessed as cell growth inhibition measured for 24 hrs by MTT assay
- Format: functional, cell-based
- experimentalParameters: MCF7, 24 h
Could you please report measured pIC50 for the items listed next?
Numbers only, as −log10 of the molar value.

Worked cases, answers included:
*Q* Item: Cc1ccc2oc(SCC(=O)Nc3ccc(C(=O)Nc4ccc(O)cc4)cc3)nc2c1 Test system: MCF7 Read-out: pIC50 Value: ?
*A* 4.74

*Q* Queued: Cc1ccc2oc(SCC(=O)Nc3ccc(C(=O)Nc4cccc(Cl)c4)cc3)nc2c1
*A* 4.82

*Q* Same thing, different compound: O=C(CSc1nc2ccccc2o1)Nc1ccc(C(=O)NC2CCCCC2)cc1
*A* 5.14

*Q* # iterate: COc1ccccc1NC(=O)c1ccc(NC(=O)CSc2nc3ccccc3o2)cc1
*A* 5.40

Now consider a different compound.
*Q* Observed pIC50 on MCF7 for O=C(CSc1nc2ccccc2o1)Nc1ccc(C(=O)Nc2ccc([N+](=O)[O-])cc2)cc1 , please.
*A* 5.46

###

- assayMethodText: Cytotoxicity against human HUVEC cells assessed as reduction in cell viability incubated for 72 hrs by CCK-8 assay
- Format: toxicity, cell-based
resultType: IC50 at 72 h
Field note: include the unit after the figure.

Known results for compounds:
*Q* Reported IC50 at 72 h for COc1ccc2[nH]cc(C(=O)OCc3nc4ccccc4n3C)c2c1 : what is it?
*A* 0.32 µM

*Q* Quick one: Cn1c(COC(=O)c2c[nH]c3ccc(Br)cc23)nc2ccccc21
*A* 0.32 µM

*Q* How about this compound: Cn1c(COC(=O)c2c[nH]c3ccccc23)nc2ccccc21
*A* 0.26 µM

Next compound, please.
*Q* I have this compound here, O=C(OCc1nc2ccccc2[nH]1)c1c[nH]c2ccccc12 , and I need its recorded IC50 at 72 h.
*A* 0.56 µM
